Test: Equilibrium solubility of crystalline DHM in simulated intestinal fluids (FeSSIF, FaSSIF)
Assay type: physicochemical
Conditions: Fed State Simulated Intestinal Fluid (FeSSIF), pH 5, fessif, thermodynamic from solid, fed state simulated intestinal fluid, pH 5.0; read-out: equilibrium solubility in FeSSIF
observed-property: solubility thermodynamic

[[record]]
compound = "O=C1c2c(O)cc(O)cc2O[C@H](c2cc(O)c(O)c(O)c2)[C@H]1O [DHM, dihydromyricetin]"
value_measured = "~140 µg/mL"


###

Assay: Equilibrium solubility of crystalline DHM in simulated intestinal fluids (FeSSIF, FaSSIF)
Type: physicochemical
Settings: Fasted State Simulated Intestinal Fluid (FaSSIF), pH 6.5, fassif, thermodynamic from solid, fasted state simulated intestinal fluid, pH 6.5; read-out: equilibrium solubility in FaSSIF
observed-property: solubility thermodynamic

[[record]]
compound = "O=C1c2c(O)cc(O)cc2O[C@H](c2cc(O)c(O)c(O)c2)[C@H]1O [DHM, dihydromyricetin]"
observed_property = "solubility thermodynamic"
value_measured = "~50 µg/mL"

